The molecules listed here are annotated with their Ratio WT/mutant.
- TARGET: EGFR T790M/L858R (Homo sapiens (Human), UniProt P00533, L858R/T790M)
- TEST_DESCRIPTION: Omnia assay, EGFR (T790M/L858R) active enzyme
- Assay type: biochemical
- RECORDED_CONDITIONS: biochemical IC50, WT EGFR vs EGFR (T790M/L858R)
METRIC: Ratio WT/mutant

| STRUCTURE_SMILES_STRING | TARGET | READOUT_VALUE |
| --- | --- | --- |
| C=CC(=O)Nc1cccc(Oc2nc(Nc3ccc(OC)c(OC)c3OC)ncc2C(F)(F)F)c1 | EGFR T790M/L858R (Homo sapiens (Human), UniProt P00533, L858R/T790M) | >50 |
| C=CC(=O)Nc1cccc(Nc2nc(Nc3ccc(OC)cc3OC)ncc2Br)c1 | EGFR T790M/L858R (Homo sapiens (Human), UniProt P00533, L858R/T790M) | >45 |
| C=CC(=O)Nc1cccc(Nc2nc(Nc3ccc(OC)c(OC)c3OC)ncc2Br)c1 | EGFR T790M/L858R (Homo sapiens (Human), UniProt P00533, L858R/T790M) | >45 |
| C=CC(=O)Nc1cccc(Nc2nc(Nc3ccc(OC)cc3OC)ncc2Cl)c1 | EGFR T790M/L858R (Homo sapiens (Human), UniProt P00533, L858R/T790M) | >50 |
| C=CC(=O)Nc1cccc(Nc2nc(Nc3cccc(OC)c3OC)ncc2Br)c1 | EGFR T790M/L858R (Homo sapiens (Human), UniProt P00533, L858R/T790M) | >50 |
| C=CC(=O)Nc1cccc(Oc2nc(Nc3cccc(OC)c3OC)ncc2Br)c1 | EGFR T790M/L858R (Homo sapiens (Human), UniProt P00533, L858R/T790M) | >45 |
| C=CC(=O)Nc1cccc(Oc2nc(Nc3ccccc3OC)ncc2F)c1 | EGFR T790M/L858R (Homo sapiens (Human), UniProt P00533, L858R/T790M) | >10 |
| C=CC(=O)Nc1cccc(Oc2nc(Nc3cccc(OC)c3OC)ncc2Cl)c1 | EGFR T790M/L858R (Homo sapiens (Human), UniProt P00533, L858R/T790M) | >35 |

====

- TARGET: EGFR T790M/L858R (Homo sapiens (Human), UniProt P00533, L858R/T790M)
- TEST_DESCRIPTION: Omnia assay, EGFR (T790M/L858R) active enzyme
- Assay type: biochemical
- RECORDED_CONDITIONS: biochemical IC50, WT EGFR vs EGFR (T790M/L858R)
Each entry below lists one item and its recorded Ratio WT/mutant value.
METRIC: Ratio WT/mutant

| STRUCTURE_SMILES_STRING | METRIC | READOUT_VALUE |
| --- | --- | --- |
| C=CC(=O)Nc1cccc(Nc2nc(Nc3ccccc3OC)ncc2C(F)(F)F)c1 | Ratio WT/mutant | >50 |
| C=CC(=O)Nc1cccc(Nc2nc(Nc3ccc(OC)c(OC)c3OC)ncc2C(F)(F)F)c1 | Ratio WT/mutant | >25 |
| C=CC(=O)Nc1cccc(Nc2nc(Nc3ccccc3OC)ncc2Cl)c1 | Ratio WT/mutant | >30 |
| C=CC(=O)Nc1cccc(Oc2nc(Nc3ccc(OC)c(OC)c3OC)ncc2Cl)c1 | Ratio WT/mutant | >25 |

====

- TARGET: EGFR T790M/L858R (Homo sapiens (Human), UniProt P00533, L858R/T790M)
- TEST_DESCRIPTION: Omnia assay, EGFR (T790M/L858R) active enzyme
- RECORDED_CONDITIONS: [EGFR-T790M/L858R]=2.5 nM, [ATP]=20 uM, 30 min pre-incubation

| STRUCTURE_SMILES_STRING | IC50 |
| --- | --- |
| C=CC(=O)Nc1cccc(Oc2nc(Nc3cccc(OC)c3OC)ncc2Cl)c1 | 10 to 100 nM |
| C=CC(=O)Nc1cccc(Nc2nc(Nc3cccc(OC)c3OC)ncc2Br)c1 | 1 to 10 nM |

====

- TARGET: EGFR delE746-A750 mutation (HCC827 cells) (Homo sapiens (Human), UniProt P00533, DEL746-750)
- TEST_DESCRIPTION: EGFR signaling immunoblot in HCC827 cells
- RECORDED_CONDITIONS: HCC827 cells, signaling, 1 hr
pEC50: −log10 of the molar value.
METRIC: pEC50

| STRUCTURE_SMILES_STRING | READOUT_VALUE |
| --- | --- |
| C=CC(=O)Nc1cccc(Oc2nc(Nc3cccc(OC)c3OC)ncc2Cl)c1 | 6.00 to 6.30 |

====

Catalogue of Ratio WT/mutant readings, one per entry.
- TARGET: EGFR double mutation L858R/T790M (H1975 cells) (Homo sapiens (Human), UniProt P00533, L858R/T790M)
- TEST_DESCRIPTION: EGFR signaling immunoblot (phospho-EGFR, phospho-S6) in H1975 cells
- Format: cell-based
- RECORDED_CONDITIONS: signaling EC50, WT EGFR (A431) vs H1975

| STRUCTURE_SMILES_STRING | Ratio WT/mutant |
| --- | --- |
| C=CC(=O)Nc1cccc(Oc2nc(Nc3ccc(OC)c(OC)c3OC)ncc2Cl)c1 | >50 |
| C=CC(=O)Nc1cccc(Nc2nc(Nc3ccc(OC)c(OC)c3OC)ncc2C(F)(F)F)c1 | >50 |
| C=CC(=O)Nc1cccc(Oc2nc(Nc3ccc(OC)c(OC)c3OC)ncc2C(F)(F)F)c1 | >50 |
| C=CC(=O)Nc1cccc(Nc2nc(Nc3ccc(OC)cc3OC)ncc2Cl)c1 | >5 |
| C=CC(=O)Nc1cccc(Nc2nc(Nc3ccccc3OC)ncc2C(F)(F)F)c1 | >50 |
| C=CC(=O)Nc1cccc(Nc2nc(Nc3ccc(OC)c(OC)c3OC)ncc2Br)c1 | >50 |
